The values you see were collected from ChEMBL document CHEMBL3137667.

Below, each entry is listed with its recorded Hepatotoxicity (steatosis).
# condition notes: human;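 also: steatosis confirmed by histopathology, value is the count of indexed references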
Answer with a number only.

# example entries with known answers
| molecule | Hepatotoxicity (steatosis) |
| --- | --- |
| Clc1ccccc1CN1CCc2sccc2C1 [TICLOPIDINE] | 1 |
| Cc1cccc(C)c1OCC(=O)N[C@@H](Cc1ccccc1)[C@@H](O)C[C@H](Cc1ccccc1)NC(=O)[C@H](C(C)C)N1CCCNC1=O [LOPINAVIR] | 0 |

Query: Please look up its Hepatotoxicity (steatosis): CCC/C=C/C=C/C(=O)O[C@H]1/C(=C/C(=O)OC)C[C@H]2C[C@H]([C@@H](C)O)OC(=O)C[C@H](O)C[C@@H]3C[C@H](OC(C)=O)C(C)(C)[C@](O)(C[C@@H]4C/C(=C/C(=O)OC)C[C@H](/C=C/C(C)(C)[C@]1(O)O2)O4)O3 [BRYOSTATIN 1]
Result: 0
